system: S100A9 (Homo sapiens, UniProt P06702)
Construct: made in house; host or cells: E. coli
Sequence (P06702 1-114): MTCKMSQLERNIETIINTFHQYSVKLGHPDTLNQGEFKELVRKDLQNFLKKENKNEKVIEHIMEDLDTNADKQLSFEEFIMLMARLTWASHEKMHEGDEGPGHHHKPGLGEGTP
protocol.text: ThT fluorescence kinetics of S100A9 amyloid formation in the presence of compounds
Type: biochemical
condition.parameters: S100A9:compound 1:10; 75 μM S100A9, 20 µM ThT, PBS pH 7.4, 42 °C; isodesmic polymerization fit; triplicate
Non-standard residues stand in square brackets, D forms with d. Residues, ends and D or L forms follow the SMILES beside them. Dopa = N[C@@H](Cc1ccc(O)c(O)c1)C(=O)O
The label t is reserved for k, kinetic rate constant of S100A9 amyloid formation strictly under 70000 M⁻¹ s⁻¹; f covers values equal to or above it.

Some solved cases for reference:
INSERT INTO results (molecule, class_label) VALUES
  ('N[C@@H](Cc1ccc(O)c(O)c1)C(=O)N[C@@H](CC(=O)O)C(=O)N[C@@H](Cc1c[nH]cn1)C(=O)N[C@@H](Cc1ccc(O)c(O)c1)C(=O)O [DOPA-D-H-DOPA] (H-[Dopa]DH[Dopa]-OH)', 't'),
  ('N[C@@H](Cc1ccc(O)c(O)c1)C(=O)N[C@@H](CC(=O)O)C(=O)N[C@@H](Cc1c[nH]cn1)C(=O)O [DOPA-D-H] (H-[Dopa]-Asp-His-OH)', 't'),
  ('O=C(CN1CCNCCNCCNCC1)N[C@@H](Cc1ccc(O)c(O)c1)C(=O)O', 'f'),
  ('O=C(O)CC[C@H](NC(=O)CN1CCNCCNCCNCC1)C(=O)N[C@@H](Cc1c[nH]cn1)C(=O)O', 't');

Please find the next molecule below.
Problem: A record lists N[C@@H](Cc1ccc(O)c(O)c1)C(=O)N[C@@H](Cc1c[nH]cn1)C(=O)N[C@@H](Cc1c[nH]cn1)C(=O)N[C@@H](Cc1ccc(O)c(O)c1)C(=O)O [DOPA-H-H-DOPA] (H-[Dopa]HH[Dopa]-OH) . Is its k, kinetic rate constant of S100A9 amyloid formation below 70000 M⁻¹ s⁻¹?
Solution: f

----------
# reported k/kS100A9; entries follow
system: S100A9 (Homo sapiens, UniProt P06702)
Construct: made in house; host or cells: E. coli
Sequence (P06702 1-114): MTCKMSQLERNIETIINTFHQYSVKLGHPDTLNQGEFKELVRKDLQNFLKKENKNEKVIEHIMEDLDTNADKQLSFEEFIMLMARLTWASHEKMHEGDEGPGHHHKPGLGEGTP
protocol.text: ThT fluorescence kinetics of S100A9 amyloid formation in the presence of compounds
Assay type: biochemical
condition.parameters: S100A9:compound 1:1; 75 μM S100A9, PBS pH 7.4, 42 °C
Non-standard residues stand in square brackets, D forms with d. Residues, ends and D or L forms follow the SMILES beside them. Dopa = N[C@@H](Cc1ccc(O)c(O)c1)C(=O)O
Keep it simple and answer with nothing but the number.

Observe how each entry below is paired with its result.
INSERT INTO measurements (compound, system, recorded_result) VALUES
  ('N[C@@H](Cc1ccc(O)c(O)c1)C(=O)N[C@@H](Cc1c[nH]cn1)C(=O)N[C@@H](Cc1c[nH]cn1)C(=O)N[C@@H](Cc1ccc(O)c(O)c1)C(=O)O [DOPA-H-H-DOPA] (H-[Dopa]HH[Dopa]-OH)', 'S100A9 (Homo sapiens, UniProt P06702)', 1.17),
  ('O=C(O)CC[C@H](NC(=O)CN1CCNCCNCCNCC1)C(=O)N[C@@H](Cc1c[nH]cn1)C(=O)O', 'S100A9 (Homo sapiens, UniProt P06702)', 1.05),
  ('N[C@@H](Cc1ccc(O)c(O)c1)C(=O)N[C@@H](CC(=O)O)C(=O)N[C@@H](Cc1c[nH]cn1)C(=O)O [DOPA-D-H] (H-[Dopa]-Asp-His-OH)', 'S100A9 (Homo sapiens, UniProt P06702)', 0.95),
  ('N[C@@H](Cc1ccc(O)c(O)c1)C(=O)N[C@@H](CC(=O)O)C(=O)N[C@@H](Cc1c[nH]cn1)C(=O)N[C@@H](Cc1ccc(O)c(O)c1)C(=O)O [DOPA-D-H-DOPA] (H-[Dopa]DH[Dopa]-OH)', 'S100A9 (Homo sapiens, UniProt P06702)', 0.91);

Switching to the query record.
Problem: Need k/kS100A9 of O=C(CN1CCNCCNCCNCC1)N[C@@H](Cc1ccc(O)c(O)c1)C(=O)O , thanks.
Solution: 0.93
